System: D54 LucT luciferase reporter counterscreen, luminescence, 24 h
Experiment: reporter signal increase, D54 LucT cells – cell-based, luminescence, cherry pick, counter-screen for N-linked glycosylation inhibitor project, dose response (AID 624404)
Inconclusive results are not listed.
Exercise: for every item that follows, state its recorded AC35.

Example compounds with recorded AC35:
CCOc1cc(N2CCOCC2)c(OCC)cc1NC(=O)c1[nH]c(C)c(C(C)=O)c1C	10.7 nM
Cc1nnc2c(NC3CCCCC3)nc3ccccc3n12	3510 nM

Hello, I would appreciate it if you could give AC35 for each entry below.
1. Cc1cccc(CCNC(=O)CCCOc2cc(=O)n(C)c3ccccc23)c1
2. Cc1ccc(S(=O)(=O)N2CCN(C(=O)COC(=O)c3cc([N+](=O)[O-])ccc3NCCO)CC2)c(C)c1
3. COc1cccc(C(=O)Nc2ccc3c(c2)C(=O)c2ccccc2C3=O)c1
4. Cc1ccc(Nc2nc(N)nc(CN3CCN(Cc4ccccc4)CC3)n2)cc1Cl
5. Cn1c(-c2ccccc2)c(/C=N/NC(=O)c2ccc(O)cc2)c2ccccc21
6. O=c1cc(N2CCN(c3ccccc3Cl)CC2)[nH]c(=O)n1Cc1ccc(F)cc1
7. Cc1cccc2c(C(=O)N3CCN(c4ccccc4)CC3)cc(-c3ccncc3)nc12
8. COc1ccc(OC)c(N(CC(=O)Nc2cccc3ccccc23)S(C)(=O)=O)c1

Result string:
["321 nM", "1460 nM", "121 nM", "107 nM", "319 nM", "3260 nM", "126 nM", "2420 nM"]

Reference source: PubChem BioAssay AID624404
